- systemUnderTest: T1, alpha-fetoprotein (AFP) (Homo sapiens, UniProt P02771 19-609)
- T1 sequence: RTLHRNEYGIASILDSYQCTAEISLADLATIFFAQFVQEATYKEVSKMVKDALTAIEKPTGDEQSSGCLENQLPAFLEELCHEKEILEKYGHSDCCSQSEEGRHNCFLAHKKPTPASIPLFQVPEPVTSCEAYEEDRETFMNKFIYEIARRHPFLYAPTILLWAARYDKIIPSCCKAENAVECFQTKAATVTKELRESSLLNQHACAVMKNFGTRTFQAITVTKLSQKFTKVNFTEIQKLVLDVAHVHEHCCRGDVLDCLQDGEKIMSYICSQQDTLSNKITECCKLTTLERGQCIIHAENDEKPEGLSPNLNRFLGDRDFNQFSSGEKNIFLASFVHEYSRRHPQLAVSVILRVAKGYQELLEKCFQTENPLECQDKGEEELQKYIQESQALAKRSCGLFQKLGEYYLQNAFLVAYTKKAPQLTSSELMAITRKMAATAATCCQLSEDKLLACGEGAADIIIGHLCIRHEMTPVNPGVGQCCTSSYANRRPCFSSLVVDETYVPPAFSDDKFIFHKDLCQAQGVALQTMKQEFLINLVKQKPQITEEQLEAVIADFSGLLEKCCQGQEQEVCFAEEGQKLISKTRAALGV
- assayOverview: magnetic bead binding assay, RCA amplification, antiF-POD, chronoamperometry; apparent Kd; RCA after binding; Langmuir fit (abstract prints 189 nM); 1x PBS, 25 °C, 30 min, 1300 rpm; 60 µg AFP-modified magnetic beads in 250 µL (effective AFP about 34 nM); washes 1x PBS 0.01% Tween 20; pH not stated
- testParameters: protein: native
outcomeMeasure: pKd
Just the number, please; pKd means minus log10 of the concentration in mol/L.

Consider the binder AFP-S-RCA (ssDNA) DNA: TCAGGTGCAGTTCTCGACTCGGTCTTGATGTGGGTTTTTTTTTTTAGATAGTAAGTGCAATCT and give its measured pKd.
6.73
